Assay: Metabolic stability in human liver microsomes assessed as half life
Type: ADME, Microsome
half-life by entry:
# value in h; strip the unit string

Example results:
Documented half-life of Cn1cc2cc(/N=c3\[nH]c(=O)n(-c4cncc(O[C@H]5CCOC5)c4)c(=O)n3Cc3cc(F)c(F)cc3F)c(Cl)cc2n1 : 2.34

Kindly note the recorded half-life for COCCOc1cncc(-n2c(=O)[nH]/c(=N\c3cc4cn(C)nc4cc3Cl)n(Cc3cc(C#N)ccc3C)c2=O)c1 , which is 5.92

# half-life of Cc1cncc(-n2c(=O)[nH]/c(=N\c3cc4cn(C)nc4cc3Cl)n(Cc3cc(Cl)c(F)cc3Oc3ccc(C#N)c(F)c3)c2=O)c1 = 2.02

// next entry
# compound Cn1cc2cc(/N=c3\[nH]c(=O)n(-c4cncc(O[C@H]5CCOC5)c4)c(=O)n3Cc3cc(Cl)c(F)cc3F)c(Cl)cc2n1 ; its half-life = 1.72
